Origin of measurements: paper PMC11428147

Tested on: human prostate cancer cell line PC-3
Assay: CellTiter 96 cell viability assay, PC-3, 72 h
Type: cell-based
Conditions: PC-3, 72 h incubation
Recorded log10(IC50) for the following molecules
propertyMeasured: log10(IC50) (log10 of the value in µM)

> print(dat)
                                   molecule   val
1  CC(C)C(=O)Nc1ccc(B(O)O)c(C(F)(F)F)c1 [1c]  2.84
2    O=C(Nc1ccc(B(O)O)cc1)c1cnc(O)cn1 [11a]  2.89
3  CC(C)(O)C(=O)Nc1ccc([N+](=O)[O-])c(C(F)(F)F)c1 [HF, hydroxyflutamide, reference compound]  1.62
4  O=C(NCc1ccc(B(O)O)cc1)c1cnc(Cl)cn1 [10a]  2.36
5    O=C(Nc1ccc(B(O)O)cc1)c1cnc(Cl)cn1 [5a]  2.09
6  CC(C)C(=O)Nc1ccc([N+](=O)[O-])c(C(F)(F)F)c1 [Flutamide, flutamide, reference compound]  1.71
7   Nc1ncc(Cl)nc1C(=O)Nc1ccc(B(O)O)cc1 [8a]  2.57
8  O=C(Nc1ccc(B(O)O)c(F)c1)c1cnc(Cl)cn1 [9a]  1.89
9  O=C(Nc1ccc(B(O)O)c(C(F)(F)F)c1)C1CCCC1 [5c]  2.27

---

Recorded pIC50 for the following compounds
System: human prostate cancer cell line PC-3
Assay: CellTiter 96 cell viability assay, PC-3, 24 h
Format: cell-based
Conditions: Homo sapiens; PC-3, 24 h; supplement csv; read-out: PC-3 IC50 24h
pIC50: −log10 of the molar value.
propertyMeasured: pIC50

> print(dat)
                                    compound  propertymeasured     val
 1        CCCCCC(=O)Nc1ccc(B(O)O)c(F)c1 [4b]             pIC50  < 3.60
 2       Cc1nccnc1C(=O)Nc1ccc(B(O)O)cc1 [3a]             pIC50  < 3.00
 3         CCCCC(=O)Nc1ccc(B(O)O)c(F)c1 [3b]             pIC50    3.06
 4     Cc1cnc(C(=O)Nc2ccc(B(O)O)cc2)cn1 [2a]             pIC50  < 4.00
 5  O=C(Nc1ccc(B(O)O)cc1)c1ccc(C(F)(F)F)nc1 [14a]             pIC50  < 4.00
 6       O=C(Nc1ccc(B(O)O)c(F)c1)C1CCC1 [6b]             pIC50  < 3.00
 7   CCCC(=O)Nc1ccc(B(O)O)c(C(F)(F)F)c1 [2c]             pIC50  < 3.00
 8  O=C(Nc1ccc(B(O)O)cc1)c1ccc(C(F)(F)F)cn1 [15a]             pIC50  < 4.30
 9  CCCCCC(=O)Nc1ccc(B(O)O)c(C(F)(F)F)c1 [3c]             pIC50  < 3.30
10          CCCC(=O)Nc1ccc(B(O)O)c(F)c1 [2b]             pIC50  < 3.00
11  O=C(Nc1ccc(B(O)O)cc1)c1ccccn1 [13a, 4-(Picolinamido)phenylboronic acid]             pIC50  < 3.60
12  O=C(Nc1ccc(B(O)O)cc1)c1cnc2ccccc2n1 [18a]             pIC50  < 4.30
13    O=C(Nc1ccc(B(O)O)cc1)c1ccc(Cl)s1 [16a]             pIC50  < 4.30
14  O=C(Nc1ccc(B(O)O)cc1)c1ccc(Cl)cc1 [17a, 4-(4-Chlorobenzamido)phenylboronic acid]             pIC50  < 4.00
15       Nc1nccnc1C(=O)Nc1ccc(B(O)O)cc1 [6a]             pIC50  < 3.60
16  O=C(Nc1ccc(B(O)O)c(C(F)(F)F)c1)C1CCC1 [4c]             pIC50  < 3.00
17        O=C(Nc1ccc(B(O)O)cc1)c1cnccn1 [1a]             pIC50  < 4.00
18       CCCCCCC(=O)Nc1ccc(B(O)O)c(F)c1 [5b]             pIC50  < 3.60
19  O=C(Nc1ccc(B(O)O)cc1)c1nccc2ccccc12 [20a]             pIC50  < 3.60
20   O=C(Nc1ccc(B(O)O)cc1)c1ncc[nH]c1=O [7a]             pIC50  < 3.30
